Quick list: normalized growth per entry.
Assay: chemical genetic growth profiling, strain panel (AID 1159580);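 also: tested at 20 µM; growth read once vehicle control cultures reached saturation at 30 °C; 1 = growth at the plate median or of vehicle wells; lower values mean less growth of the strain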
Conditions: S. cerevisiae deletion strains, growth OD, locus YHR013C, strain ard1, hits give low values
The whole screen tested about 5,500 compounds, of which about 2,000 (36%) were called active. Inconclusive results (about 18%) are left out. The list shows a part of the results.
Property Label: normalized growth

>>> readout_value("O=C1c2ccccc2C(=O)C1c1ccccc1")
0.974
>>> readout_value("OC(c1cc(C(F)(F)F)nc2c(C(F)(F)F)cccc12)C1CCCCN1 (configuration not stated)")
1
>>> readout_value("CC[C@@H](CO)NC(=O)[C@@H]1C=C2c3cccc4[nH]cc(c34)C[C@H]2N(C)C1")
1.02
>>> readout_value("CC(=O)OC[C@H]1O[C@@H](Oc2cc(OC(C)=O)c3c(=O)cc(-c4ccc(OC(C)=O)cc4)oc3c2)[C@H](OC(C)=O)[C@@H](OC(C)=O)[C@@H]1OC(C)=O")
1.01
>>> readout_value("CC(=O)O[C@H]1CC[C@]2(C)C3CC[C@@]4(C)C(CC5O[C@@]6(CCC(C)CO6)[C@@H](C)C54)C3CC[C@@H]2C1 (some centres not stated)")
1.01
>>> readout_value("CC(=O)CC1CCCCN1 (configuration not stated)")
1.02
>>> readout_value("NCCNCCNCCN")
1

* * *

Test: chemical genetic growth profiling, strain panel (AID 1159580);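 also: tested at 20 µM; growth read once vehicle control cultures reached saturation at 30 °C; 1 = growth at the plate median or of vehicle wells; lower values mean less growth of the strain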
Conditions: S. cerevisiae deletion strains, growth OD, locus YLR370C, strain arc18, hits give low values
Out of some 5,500 compounds screened, about 2,000 (36%) were called active. About 18% were inconclusive and are not listed. The list shows a part of the results.
normalized growth overview
Property Label: normalized growth

>>> readout_value("CC(=O)Oc1cc2c(c(C)c1OC(C)=O)CC1OC13C2(C)CCC1(C)C2CC(C)(C(=O)O)CCC2(C)CCC13C (stereo not drawn)")
1.01
>>> readout_value("CC(=O)O[C@@H]1CC[C@]2(C)C3CC[C@]4(C)C(=O)CCC4C3CC[C@H]2C1 (stereo partly drawn)")
1.02
>>> readout_value("CCOc1ccc(C(=O)c2cc(O)c(OC)c(OC)c2O)cc1")
0.994
>>> readout_value("COc1ccc(C(=O)c2ccccc2)c(O)c1O")
0.975
>>> readout_value("COc1c2c(cc3c1OCO3)C13C=C[C@H](OC)CC1N(C2)CC3O (stereo partly drawn)")
0.971
>>> readout_value("CCOc1ccc(NC(C)=O)cc1")
1.01
>>> readout_value("CCOc1ccc(C(=O)c2ccc(OC)c(O)c2O)cc1")
1.02
>>> readout_value("NC(N)=NC(N)=Nc1ccccc1")
1.01

* * *

Assay: chemical genetic growth profiling, strain panel (AID 1159580);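 also: tested at 20 µM; growth read once vehicle control cultures reached saturation at 30 °C; 1 = growth at the plate median or of vehicle wells; lower values mean less growth of the strain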
Conditions: S. cerevisiae deletion strains, growth OD, locus YOR080W, strain dia2, hits give low values
Hit rate of the full screen: of about 5,500 compounds, about 2,000 (36%) were called active. Not shown: some 18% with an inconclusive outcome. The list shows a part of the results.
Recorded normalized growth for the following compounds
Property Label: normalized growth

>>> readout_value("CCCc1nc2c(C)cc(-c3nc4ccccc4n3C)cc2n1Cc1ccc(-c2ccccc2C(=O)O)cc1")
1.01
>>> readout_value("COc1c2ccoc2cc2oc(C)cc(=O)c12")
1.02
>>> readout_value("COc1cnc(NS(=O)(=O)c2ccc(N)cc2)nc1")
0.98
>>> readout_value("CCCCc1nc(Cl)c(CO)n1Cc1ccc(-c2ccccc2-c2nn[nH]n2)cc1")
0.978
>>> readout_value("O=C(NC1CCCCC1)NC1CCCCC1")
0.971
>>> readout_value("C=C(C)[C@H]1Cc2c(ccc3c2O[C@@H]2COc4cc(OC)c(OC)cc4[C@@H]2C3=O)O1")
0.994
>>> readout_value("CC1(C)C(=O)[C@@H]2C[C@@]3(O)C4=CC(=O)O[C@@H](c5ccoc5)[C@]4(C)CCC3[C@@](C)(C2=O)[C@H]1CC(=O)O (some centres not stated)")
1
>>> readout_value("CC(=O)NO")
0.977
>>> readout_value("COc1cc2c(cc1OC)[C@@H]1C(=O)c3ccc4c(c3O[C@@H]1CO2)CC(C(C)C)O4 (some centres not stated)")
0.974
>>> readout_value("O=C1c2ccccc2C(=O)C1c1ccccc1")
1
>>> readout_value("COc1cc(-c2coc3cc(O[C@@H]4O[C@H](CO)[C@@H](O)[C@H](O)[C@H]4O)c(OC)c(O)c3c2=O)cc(O)c1OC")
0.988
>>> readout_value("C#CC1(O)CCC2C3CCC4=CC(=O)CCC4(C)C3CCC21C (configuration not stated)")
0.972
>>> readout_value("O=c1c(O)c(-c2ccc(O)c(O)c2)oc2cc(O)ccc12")
0.984
>>> readout_value("COc1cc(-c2oc3cc(O)ccc3c(=O)c2O)ccc1O")
1
>>> readout_value("O=C(CCBr)N1CCN(C(=O)CCBr)CC1")
1.02
>>> readout_value("CC[C@@H](CO)NC(=O)[C@@H]1C=C2c3cccc4[nH]cc(c34)C[C@H]2N(C)C1")
0.994
>>> readout_value("CC(=O)[C@@]1(O)CCC2C3CCC4=CC(=O)CC[C@]4(C)C3CC[C@@]21C (some centres not stated)")
0.991
>>> readout_value("O=c1[nH]cnc2c1ncn2C1O[C@H](CO)[C@@H](O)[C@H]1O (some centres not stated)")
0.99
>>> readout_value("Cc1cc(C(C)(C)C)cc(C)c1CC1=NCCN1")
1.01
>>> readout_value("CN1C(=O)CCS(=O)(=O)C1c1ccc(Cl)cc1 (configuration not stated)")
0.982
>>> readout_value("C[C@]12CCC(=O)C=C1CCC1C2[C@@H](O)C[C@@]2(C)C1CC[C@]2(O)C(=O)COC(=O)CCC(=O)O (some centres not stated)")
1.01
>>> readout_value("C[C@]12CCC(=O)C=C1CCC1C2C(=O)C[C@@]2(C)C1CC[C@]2(O)C(=O)CO (some centres not stated)")
1
